Target: T1, human CAPRIN-1 expressed on the surface of human cancer cells (human, UniProt Q14444 2-709); also: test concentration or dose not given here
T1 sequence: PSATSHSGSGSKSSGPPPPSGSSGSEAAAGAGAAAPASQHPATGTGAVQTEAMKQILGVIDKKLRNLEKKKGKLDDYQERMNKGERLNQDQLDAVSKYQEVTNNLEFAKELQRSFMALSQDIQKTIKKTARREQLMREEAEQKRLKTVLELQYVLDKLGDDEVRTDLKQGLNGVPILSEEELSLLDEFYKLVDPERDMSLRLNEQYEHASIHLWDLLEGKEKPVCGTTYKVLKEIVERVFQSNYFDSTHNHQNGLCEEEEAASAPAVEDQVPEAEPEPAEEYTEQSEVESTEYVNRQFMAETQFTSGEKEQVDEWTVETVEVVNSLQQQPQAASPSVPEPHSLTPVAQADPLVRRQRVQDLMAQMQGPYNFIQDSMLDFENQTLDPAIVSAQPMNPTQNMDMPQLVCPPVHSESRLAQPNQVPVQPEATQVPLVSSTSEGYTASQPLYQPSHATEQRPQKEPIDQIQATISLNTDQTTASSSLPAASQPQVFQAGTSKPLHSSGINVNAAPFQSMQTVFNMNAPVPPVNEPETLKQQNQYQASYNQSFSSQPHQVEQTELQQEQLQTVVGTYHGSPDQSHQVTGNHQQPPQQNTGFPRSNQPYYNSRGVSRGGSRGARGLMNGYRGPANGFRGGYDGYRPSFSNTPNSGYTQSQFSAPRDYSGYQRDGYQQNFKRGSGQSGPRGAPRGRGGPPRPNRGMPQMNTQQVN
Assay: cell-based or functional assay
Readout name: ADCC cytotoxic activity (51Cr release) against DLD-1

Documented ADCC cytotoxic activity (51Cr release) against DLD-1 of human-chicken chimeric monoclonal antibody #3 (antibody, V domains shown) VH: AVTLDESGGGLQTPGGGLSLVCKGSGFTFSSFGMFWVRQAPGKGLEFVASISDNGRSTYYGSAVKGRATISRDDGQSTVRLQLNNLRAEDTGTYYCAKNAYVGRGCCFSYSIDAWGHGTEVIVS VL: ALTQPASVSVNPGETVKITCSGGGSSSDAYGWYQQKSPGSAPVTLIYNGSNRPSHIPSRFSGSTSGSTNTLTITGVQVEDEAIYFCGSTDTSTSVGIFGAGTTLTV : ≥ 15%
